B1: Mineralocorticoid receptor, residues 600 to 675; numbered along this chain, P08235 (parent)
chain: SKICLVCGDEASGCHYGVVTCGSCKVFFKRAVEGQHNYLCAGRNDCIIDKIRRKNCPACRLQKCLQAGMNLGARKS

variants of: B1; assay: abundance fitness (aPCA) (normalised: wild type 0, dead -1); higher = more abundant; growth selection in yeast, the domain comes from the species named; conditions: Homo sapiens
READOUT_LABEL: abundance fitness
Answers are plain numbers.

As a guide, the following entries are already answered.
- SEQ_STRING: "SKICLVCGDEASGCHYGVVTCRSCKVFFKRAVEGQHNYLCAGRNDCIIDKIRRKNCPACRLQKCLQAGMNLGARKS [G22R]"
  READOUT_LABEL: "abundance fitness"
  QUANTITATIVE_RESULT: -0.103
- SEQ_STRING: "SKICLVCGDSASGCHYGVVTCGSCKVFFKRAVEGQHNYLCAGRNDCIIDKIRRKNCPACRLQKCLQAGMNLGARKS [E10S]"
  READOUT_LABEL: "abundance fitness"
  QUANTITATIVE_RESULT: -0.03
- SEQ_STRING: "SKICLVCGDEASGCHYGVVTCGSCKVFFKRAVEVQHNYLCAGRNDCIIDKIRRKNCPACRLQKCLQAGMNLGARKS [G34V]"
  READOUT_LABEL: "abundance fitness"
  QUANTITATIVE_RESULT: -0.102
- SEQ_STRING: "SKICLVCGDRASGCHYGVVTCGSCKVFFKRAVEGQHNYLCAGRNDCIIDKIRRKNCPACRLQKCLQAGMNLGARKS [E10R]"
  READOUT_LABEL: "abundance fitness"
  QUANTITATIVE_RESULT: -0.1

Query: Which measured abundance fitness value corresponds to SKICLVCGDEKSGCHYGVVTCGSCKVFFKRAVEGQHNYLCAGRNDCIIDKIRRKNCPACRLQKCLQAGMNLGARKS [A11K] ?
Response: -0.101

Origin of the recorded values: the Human Domainome abundance scans (Beltran et al. 2025)
